# subject.of.test: Delta-type opioid receptor (Rattus norvegicus, UniProt P33533)
# Sequence (P33533 whole entry): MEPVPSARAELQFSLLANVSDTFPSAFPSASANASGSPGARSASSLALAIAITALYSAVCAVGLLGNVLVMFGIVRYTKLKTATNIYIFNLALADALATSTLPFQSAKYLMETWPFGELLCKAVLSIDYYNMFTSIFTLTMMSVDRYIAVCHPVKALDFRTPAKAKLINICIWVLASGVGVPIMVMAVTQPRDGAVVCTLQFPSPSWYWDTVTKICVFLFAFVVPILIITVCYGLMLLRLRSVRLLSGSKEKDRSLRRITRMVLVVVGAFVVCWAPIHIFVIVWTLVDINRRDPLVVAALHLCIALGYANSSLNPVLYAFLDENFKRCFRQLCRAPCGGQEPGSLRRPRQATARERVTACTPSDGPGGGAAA
# assay.info: Binding affinity was determined on delta [3H]DPDPE site in rat brain synaptosomes by radioreceptor assay
pKi: −log10 of the molar value.
Entries annotated with measured pKi

compound	pKi
COc1ccc(C[C@H](NC(=O)[C@@H](C)NC(=O)[C@@H](N)Cc2ccc(O)cc2)C(=O)N[C@@H](CC(=O)O)C(=O)N[C@H](C(=O)N[C@H](C(=O)NCC(N)=O)C(C)C)C(C)C)cc1	7.34
CC(C)[C@H](NC(=O)[C@H](CC(=O)O)NC(=O)[C@H](Cc1c[nH]c2ccccc12)NC(=O)[C@@H](C)NC(=O)[C@@H](N)Cc1ccc(O)cc1)C(=O)N[C@H](C(=O)NCC(N)=O)C(C)C	8.63
CC(C)[C@H](NC(=O)[C@H](CC(=O)O)NC(=O)[C@H](Cc1ccccc1)NC(=O)[C@@H](C)NC(=O)[C@@H](N)Cc1ccc(O)cc1)C(=O)N[C@H](C(=O)NCC(N)=O)C(C)C [DELTORPHIN C]	9.51
CC(C)[C@H](NC(=O)[C@H](CC(=O)O)NC(=O)[C@@H](NC(=O)[C@@H](C)NC(=O)[C@@H](N)Cc1ccc(O)cc1)c1ccccc1)C(=O)N[C@H](C(=O)NCC(N)=O)C(C)C	8.55
CC(C)[C@H](NC(=O)[C@H](CC(=O)O)NC(=O)[C@H](Cc1cnc[nH]1)NC(=O)[C@@H](C)NC(=O)[C@@H](N)Cc1ccc(O)cc1)C(=O)N[C@H](C(=O)NCC(N)=O)C(C)C	7.34
